biological target: TRPML1 (Homo sapiens, UniProt Q9GZU1); assay: Fluorescent TRPML1 assay (Fluo4-AM calcium fluorescence in doxycycline-induced HEK-293 Trex cells); format: cell-based; settings: fluorescent calcium assay
Sequence (Q9GZU1 whole entry L15A/L16A/L577A/L578A, form open): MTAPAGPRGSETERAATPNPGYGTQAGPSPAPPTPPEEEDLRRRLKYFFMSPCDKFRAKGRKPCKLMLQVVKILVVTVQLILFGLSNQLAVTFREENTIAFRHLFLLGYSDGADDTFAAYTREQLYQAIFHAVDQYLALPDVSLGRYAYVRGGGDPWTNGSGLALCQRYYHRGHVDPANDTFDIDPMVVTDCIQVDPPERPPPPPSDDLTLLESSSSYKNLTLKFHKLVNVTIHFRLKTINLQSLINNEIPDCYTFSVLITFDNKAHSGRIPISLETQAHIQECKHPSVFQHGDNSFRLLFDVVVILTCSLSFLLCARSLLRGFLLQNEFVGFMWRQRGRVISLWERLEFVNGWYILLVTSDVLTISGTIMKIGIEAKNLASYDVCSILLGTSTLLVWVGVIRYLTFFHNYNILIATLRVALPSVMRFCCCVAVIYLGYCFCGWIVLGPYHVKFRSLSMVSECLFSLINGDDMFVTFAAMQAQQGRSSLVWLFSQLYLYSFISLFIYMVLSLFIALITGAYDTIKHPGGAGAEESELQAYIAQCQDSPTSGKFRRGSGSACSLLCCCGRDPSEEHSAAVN
assay-endpoint: EC50

C[C@@H]1CN(c2ncnc3c2c(N2CCCC2=O)cn3-c2cc(F)c(F)c(F)c2)CCN1C(=O)OC(C)(C)C	> 2000 nM
C[C@@H]1CN(C(=O)OC(C)(C)C)CCN1c1ncnc2c1c(C1CC1)cn2-c1cc(F)cc(F)c1	100 to 500 nM
C[C@@H]1CN(c2ncnc3c2c(N2CCC2)cn3-c2cccc(Cl)c2)[C@@H](C)CN1C(=O)OC(C)(C)C	< 100 nM
C[C@H]1CN(C(=O)OC(C)(C)C)CCN1c1ncnc2c1c(C1=CCOCC1)cn2-c1cccc(F)c1	100 to 500 nM
C[C@H]1CN(C(=O)OC(C)(C)C)CCN1c1ncnc2c1c(-c1cccnc1)cn2-c1cccc(C#N)c1	100 to 500 nM
CCOC(=O)N1CCN(c2ncnc3c2c(-c2ccccc2F)cn3-c2cncc(OC)c2)[C@@H](C)C1	500 to 2000 nM

Task: If you can, please state the reported EC50 value of C[C@H]1CN(C(=O)OC(C)(C)C)CCN1c1ncnc2c1c(C1CC1)cn2C1CCCOC1 (some centres unmarked) .
Result: 500 to 2000 nM

Task: If you can, please state the reported EC50 value of C[C@@H]1CN(c2ncnc3c2c(N2CCCC2)cn3-c2cccc(Cl)c2)CCN1C(=O)OC(C)(C)C .
Result: < 100 nM

Task: If you can, please state the reported EC50 value of C[C@H]1CN(C(=O)OC(C)(C)C)CCN1c1ncnc2c1c(-c1cnn(C)c1)cn2-c1cccc(OC(F)(F)F)c1 .
Result: 500 to 2000 nM

Task: If you can, please state the reported EC50 value of Cc1nc(-n2cc(-c3ccccc3F)c3c(N4CCN(C(=O)OC(C)(C)C)C[C@@H]4C)ncnc32)sc1C#N .
Result: < 100 nM

Task: If you can, please state the reported EC50 value of C[C@H]1CN(C(=O)OC(C)(C)C(F)(F)F)CCN1c1ncnc2c1c(C1CC1)cn2-c1cccc(OC(F)(F)F)c1 .
Result: < 100 nM

Task: If you can, please state the reported EC50 value of C[C@H]1CN(C(=O)OC(C)(C)C)CCN1c1ncnc2c1c(C1CC1)cn2-c1cc(Cl)cc(Cl)c1 .
Result: < 100 nM

Task: If you can, please state the reported EC50 value of C[C@@H]1CN(c2ncnc3c2c(-c2ccccc2F)cn3-c2cc(Cl)ccn2)[C@@H](C)CN1C(=O)OC(C)(C)C .
Result: < 100 nM

Task: If you can, please state the reported EC50 value of C[C@H]1CN(C(=O)OC(C)(C)C)CCN1c1ncnc2c1c(C1CC1)cn2C1CCCN(C#N)C1 (some centres unmarked) .
Result: 500 to 2000 nM

###

biological target: TRPML1 (Homo sapiens, UniProt Q9GZU1); assay: Fluorescent TRPML1 assay (Fluo4-AM calcium fluorescence in doxycycline-induced HEK-293 Trex cells); format: cell-based; conditions: fluorescent calcium assay
Some compounds, each annotated with its measured EC50.

Worked cases, EC50 given:
C[C@@H]1CN(c2ncnc3c2c(-n2ccnc2)cn3-c2cccc(Cl)c2)CCN1C(=O)OC(C)(C)C	< 0.1 µM
C[C@H]1CN(C(=O)OC(C)(C)C)CCN1c1ncnc2c1c(N1CCCC1)cn2-c1cc(Cl)cc(C#N)c1	0.1 to 0.5 µM
C[C@H]1CN(C(=O)OC(C)(C)C)CCN1c1ncnc2c1c(-c1ccccc1F)cn2-c1nc(C#N)cs1	0.1 to 0.5 µM

// moving on: another record for EC50
Task: If you can, please state the reported EC50 value of CC(C)(C)OC(=O)N1CCN(c2ncnc3c2c(C2CC2)cn3-c2cc(F)cc(F)c2)C[C@@H]1CF (single isomer, unassigned) .
Result: 0.5 to 2 µM
